As shown below, each of these molecules has a reported activity coefficient value.
- assay_details: activity coefficient (dimensionless); of the first substance listed, at infinite dilution; xn = mol fraction of the nth substance listed
- assay_context: 322.9 K; 101 kPa; Liquid; Chromatography; x1 = 0
Could you respond with only the numeric value?

INSERT INTO assay_data (molecule, recorded_result) VALUES
  ('CC#N [acetonitrile] + CCCCCC[N+]1(C)CCCC1.O=S(=O)([N-]S(=O)(=O)C(F)(F)F)C(F)(F)F', 0.46),
  ('c1ccncc1 [pyridine] + CCCCCC[N+]1(C)CCCC1.O=S(=O)([N-]S(=O)(=O)C(F)(F)F)C(F)(F)F', 0.52),
  ('c1ccccc1 [benzene] + CCCCCC[N+]1(C)CCCC1.O=S(=O)([N-]S(=O)(=O)C(F)(F)F)C(F)(F)F', 0.76);

Which activity coefficient is reported for this molecule? CCC(C)=O [butanone] + CCCCCC[N+]1(C)CCCC1.O=S(=O)([N-]S(=O)(=O)C(F)(F)F)C(F)(F)F
0.42

Would you kindly repeat that for Cc1cccc(C)c1 [1,3-dimethylbenzene] + CCCCCC[N+]1(C)CCCC1.O=S(=O)([N-]S(=O)(=O)C(F)(F)F)C(F)(F)F ?
1.28

Would you kindly repeat that for ClC(Cl)Cl [trichloromethane] + CCCCCC[N+]1(C)CCCC1.O=S(=O)([N-]S(=O)(=O)C(F)(F)F)C(F)(F)F ?
0.68

Would you kindly repeat that for CCC(C)CC [3-methylpentane] + CCCCCC[N+]1(C)CCCC1.O=S(=O)([N-]S(=O)(=O)C(F)(F)F)C(F)(F)F ?
6.52

Would you kindly repeat that for CCCCCCCCC [nonane] + CCCCCC[N+]1(C)CCCC1.O=S(=O)([N-]S(=O)(=O)C(F)(F)F)C(F)(F)F ?
21.1

Would you kindly repeat that for ClC(Cl)(Cl)Cl [tetrachloromethane] + CCCCCC[N+]1(C)CCCC1.O=S(=O)([N-]S(=O)(=O)C(F)(F)F)C(F)(F)F ?
1.78

Would you kindly repeat that for CCCC(C)=O [pentan-2-one] + CCCCCC[N+]1(C)CCCC1.O=S(=O)([N-]S(=O)(=O)C(F)(F)F)C(F)(F)F ?
0.59

Would you kindly repeat that for CC1CCCC1 [methylcyclopentane] + CCCCCC[N+]1(C)CCCC1.O=S(=O)([N-]S(=O)(=O)C(F)(F)F)C(F)(F)F ?
4.9

Would you kindly repeat that for CC(C)CO [2-methyl-1-propanol] + CCCCCC[N+]1(C)CCCC1.O=S(=O)([N-]S(=O)(=O)C(F)(F)F)C(F)(F)F ?
1.87

Would you kindly repeat that for CCCCCC [hexane] + CCCCCC[N+]1(C)CCCC1.O=S(=O)([N-]S(=O)(=O)C(F)(F)F)C(F)(F)F ?
7.74

Would you kindly repeat that for CCCCCCC [heptane] + CCCCCC[N+]1(C)CCCC1.O=S(=O)([N-]S(=O)(=O)C(F)(F)F)C(F)(F)F ?
10.6

* * *

As shown below, each of these molecules has a reported activity coefficient value.
- assay_details: activity coefficient (dimensionless); of the first substance listed, at infinite dilution; xn = mol fraction of the nth substance listed
- assay_context: 322.9 K; 101 kPa; Liquid; Chromatography; x1 = 0
Could you respond with only the numeric value?

Which activity coefficient is reported for this molecule? CCc1ccccc1 [ethylbenzene] + CCCCCC[N+]1(C)CCCC1.O=S(=O)([N-]S(=O)(=O)C(F)(F)F)C(F)(F)F
1.38

Would you kindly repeat that for Cc1ccccc1C [1,2-dimethylbenzene] + CCCCCC[N+]1(C)CCCC1.O=S(=O)([N-]S(=O)(=O)C(F)(F)F)C(F)(F)F ?
1.17

Would you kindly repeat that for CCO [ethanol] + CCCCCC[N+]1(C)CCCC1.O=S(=O)([N-]S(=O)(=O)C(F)(F)F)C(F)(F)F ?
1.41

Would you kindly repeat that for CO [methanol] + CCCCCC[N+]1(C)CCCC1.O=S(=O)([N-]S(=O)(=O)C(F)(F)F)C(F)(F)F ?
0.94

Would you kindly repeat that for C1CCCCC1 [cyclohexane] + CCCCCC[N+]1(C)CCCC1.O=S(=O)([N-]S(=O)(=O)C(F)(F)F)C(F)(F)F ?
5.16
